Test: Observed water / reaction buffer solubility of ligands
Conditions: Table 1

- chemical-smiles: "CSCC[C@H](NC(=O)[C@H](Cc1c[nH]c2ccccc12)NC(=O)[C@H](CO)NC(=O)[C@H](CCCCN)NC(=O)[C@H](CC(N)=O)NC(=O)[C@H](CC(N)=O)NC(=O)[C@H](CCCCN)NC(=O)[C@H](Cc1c[nH]cn1)NC(=O)[C@H](Cc1ccc(O)cc1)NC(=O)[C@H](Cc1ccc(O)cc1)NC(=O)[C@@H](NC(=O)CNC(=O)[C@H](CC(C)C)NC(=O)[C@H](Cc1ccccc1)NC(=O)[C@@H]1CCCN1C(=O)CNC(=O)CNC(=O)CNC(=O)[C@@H](N)CS)C(C)C)C(=O)O"
  Observed water solubility: "Poor"
- chemical-smiles: "CC[C@H](C)[C@H](NC(=O)[C@H](Cc1c[nH]c2ccccc12)NC(=O)CNC(=O)[C@H](CCCNC(=N)N)NC(=O)[C@@H](NC(=O)[C@@H](NC(=O)[C@H](CC(N)=O)NC(=O)[C@H](CO)NC(=O)[C@H](CCCCN)NC(=O)[C@H](CCC(=O)O)NC(=O)[C@@H](NC(=O)[C@H](CO)NC(=O)[C@H](C)NC(=O)[C@H](Cc1ccccc1)NC(=O)CNC(=O)CNC(=O)CNC(=O)[C@@H](N)CS)[C@@H](C)O)[C@@H](C)CC)[C@@H](C)CC)C(=O)N[C@@H](Cc1ccccc1)C(=O)O"
  Observed water solubility: "Poor"
- chemical-smiles: "CC(C)C[C@H](NC(=O)[C@H](Cc1ccc(O)cc1)NC(=O)[C@H](CC(N)=O)NC(=O)[C@H](Cc1ccc(O)cc1)NC(=O)[C@H](CC(N)=O)NC(=O)CNC(=O)CNC(=O)[C@@H](NC(=O)[C@H](CCCCN)NC(=O)[C@H](CO)NC(=O)[C@H](CC(=O)O)NC(=O)[C@H](CC(C)C)NC(=O)[C@H](CC(N)=O)NC(=O)[C@H](CC(N)=O)NC(=O)CNC(=O)CNC(=O)CNC(=O)[C@@H](N)CS)C(C)C)C(=O)N[C@@H](Cc1ccc(O)cc1)C(=O)N[C@@H](CCCNC(=N)N)C(=O)O"
  Observed water solubility: "Poor"
- chemical-smiles: "CC[C@H](C)[C@H](NC(=O)[C@H](Cc1ccccc1)NC(=O)[C@H](CO)NC(=O)[C@H](CCCNC(=N)N)NC(=O)[C@H](CCCCN)NC(=O)[C@H](CO)NC(=O)[C@@H]1CCCN1C(=O)[C@H](CCCCN)NC(=O)[C@H](CO)NC(=O)[C@@H]1CCCN1C(=O)CNC(=O)CNC(=O)CNC(=O)[C@@H](N)CS)C(=O)N[C@@H](CCC(=O)O)C(=O)N[C@@H](CC(=O)O)C(=O)N[C@@H](CC(C)C)C(=O)N[C@@H](CC(C)C)C(=O)N[C@@H](Cc1ccccc1)C(=O)N[C@@H](CC(N)=O)C(=O)N[C@@H](CCCCN)C(=O)N[C@H](C(=O)O)C(C)C"
  Observed water solubility: "Good"
